Test system: S. aureus Smith (SAU0017, ATCC 19636)
Assay: Intraperitoneal murine model of protection against infection (ED50, Table 21)
Assay type: in vivo, Staphylococcus aureus
Conditions: Swiss CD1 mice infected i.p., compound i.v.
Excerpt: A variety of in vivo models may be used to assess the antimicrobial properties of lipopeptide derivative compounds of this disclosure. For example, antimicrobial compounds of the instant disclosure may be tested for efficacy by measuring a compound's ability to protect a mouse against a microbial infection, such as an infection or disease caused by or related to Gram-positive bacteria, including Staphylococcus aureus, Streptococcus pneumoniae, and Enterococcus faecalis. […]
Starred links: 1 amine or outer side, 2 acyl side, 3 side chain; linkers in the order of their positions; H or OH if unused. Positions of bridges follow the written chain, without caps; N, C: chain ends. Non-standard residues stand in square brackets, D forms with d. Residues, ends and D or L forms follow the SMILES beside them. ξ: configuration not given here. *: point of attachment. ξAbu(βξ-NH2) = CC(N[*:3])C(N[*:1])C(=O)[*:2]; ξAsp(βξ-Me) = CC(C(=O)O)C(N)C(=O)O; X2 = O=C(CCc1ccc(N[*:1])cc1)[*:2]; ξAbu(3ξ-NH2) = CC(N)C(N)C(=O)O; Lauroyl = CCCCCCCCCCCC(=O)*; Pip = O=C(O)[CH]1CCCCN1
measurementName: ED50 in Mice, S. aureus (SAU0017)
Please make sure the unit comes right after the number.

Task: Read off the recorded ED50 in Mice, S. aureus (SAU0017) for CCCCCCCCCCCCCC(=O)NC(CC(=O)O)C(=O)NC1C(=O)N2CCCCC2C(=O)NC(C(C)C(=O)O)C(=O)NC(CC(=O)O)C(=O)NCC(=O)NC(CC(=O)O)C(=O)NCC(=O)NC(C(C)NC(=O)CNC)C(=O)NC(C(C)C)C(=O)N2CCCC2C(=O)NC1C (stereo not drawn)
Result: 10 mg/kg

Task: Read off the recorded ED50 in Mice, S. aureus (SAU0017) for CCCCCCCCCCCCCCNC(=O)NC(CC(=O)O)C(=O)NC1C(=O)N2CCCCC2C(=O)NC(C(C)C(=O)O)C(=O)NC(CC(=O)O)C(=O)NCC(=O)NC(CC(=O)O)C(=O)NCC(=O)NC(C(C)N)C(=O)NC(C(C)C)C(=O)N2CCCC2C(=O)NC1C (stereo not drawn)
Result: 4.8 mg/kg

Task: Read off the recorded ED50 in Mice, S. aureus (SAU0017) for CC(=O)Nc1ccc(C(=O)NC(CC(=O)O)C(=O)NC2C(=O)N3CCCCC3C(=O)NC(C(C)C(=O)O)C(=O)NC(CC(=O)O)C(=O)NCC(=O)NC(CC(=O)O)C(=O)NCC(=O)NC(C(C)N)C(=O)NC(C(C)C)C(=O)N3CCCC3C(=O)NC2C)cc1 (stereo not drawn)
Result: 6.5 mg/kg

Task: Read off the recorded ED50 in Mice, S. aureus (SAU0017) for CCCCCCCCCCCCCCC(=O)NC(CC(=O)O)C(=O)NC1C(=O)N2CCCCC2C(=O)NC(C(C)C(=O)O)C(=O)NC(CC(=O)O)C(=O)NCC(=O)NC(CC(=O)O)C(=O)NCC(=O)NC(C(C)NC(=O)CCN)C(=O)NC(C(C)C)C(=O)N2CCCC2C(=O)NC1C (stereo not drawn)
Result: 6.5 mg/kg

Task: Read off the recorded ED50 in Mice, S. aureus (SAU0017) for CCCCCCCCCCCC(=O)Nc1ccc(CCC(=O)NC(CC(=O)O)C(=O)NC2C(=O)N3CCCCC3C(=O)NC(C(C)C(=O)O)C(=O)NC(CC(=O)O)C(=O)NCC(=O)NC(CC(=O)O)C(=O)NCC(=O)NC(C(C)N)C(=O)NC(C(C)C)C(=O)N3CCCC3C(=O)NC2C)cc1 (stereo not drawn) [Compound 108, C12-(p-Aminophenylpropanoyl)-Amphomycin] (Lauroyl-[X2]D[ξAbu(βξ-NH2)][Pip][ξAsp(βξ-Me)]DGDG[ξAbu(3ξ-NH2)]VP; lactam 3-C; configuration not given here)
Result: 6.5 mg/kg

Task: Read off the recorded ED50 in Mice, S. aureus (SAU0017) for CCCCCCCCCCCCCCC(=O)NC(CC(=O)O)C(=O)NC1C(=O)N2CCCCC2C(=O)NC(C(C)C(=O)O)C(=O)NC(CC(=O)O)C(=O)NCC(=O)NC(CC(=O)O)C(=O)NCC(=O)NC(C(C)NC(=O)CN(C)C(=O)[C@@H](N)CCCCN)C(=O)NC(C(C)C)C(=O)N2CCCC2C(=O)NC1C (stereo partly drawn)
Result: 8 mg/kg

---

System: Staphylococcus aureus (MSSA)
Conditions: 24 h
Procedure: (“Approved Standard M7-A3”). The antimicrobial lipopeptide derivatives described herein were tested for antimicrobial activity against Gram-positive bacteria as follows. The minimum inhibitory concentrations (MIC) of the antimicrobial lipopeptide derivatives of the invention were determined using NCCLS guidelines M7-A6 (2003) with a slight modification in that doubling serial dilutions were used to dilute the test compounds. The broth phase microdilution method was used. […]
Starred links: 1 amine or outer side, 2 acyl side, 3 side chain; linkers in the order of their positions; H or OH if unused. Positions of bridges follow the written chain, without caps; N, C: chain ends. Non-standard residues stand in square brackets, D forms with d. Residues, ends and D or L forms follow the SMILES beside them. Groups on a side chain read outwards from the residue. ξ: configuration not given here. *: point of attachment. ξAbu(βξ-NH2) = CC(N[*:3])C(N[*:1])C(=O)[*:2]; NH(2-CF3-phenyl) = FC(F)(F)c1ccccc1N*; Pentadecanoyl = CCCCCCCCCCCCCCC(=O)*; ξAsp(βξ-Me) = CC(C(=O)O)C(N)C(=O)O; X13 = O=C(CCCCCCCCCCOc1ccccc1)*; ξAbu(3ξ-NH2) = CC(N)C(N)C(=O)O; Pip = O=C(O)[CH]1CCCCN1; CO = O=C([*:1])[*:2]
measurementName: MIC (µg/mL)
The reply should contain only the number, in µg/mL.

CCCCCCCCCCCCCCC(=O)NC(CC(=O)O)C(=O)NC1C(=O)N2CCCCC2C(=O)NC(C(C)C(=O)O)C(=O)NC(CC(=O)O)C(=O)NCC(=O)NC(CC(=O)O)C(=O)NCC(=O)NC(C(C)NC(=O)Nc2ccccc2C(F)(F)F)C(=O)NC(C(C)C)C(=O)N2CCCC2C(=O)NC1C (stereo not drawn) [Compound 318, C15-Amphomycin-9-C(═O)—NH—(O—CF3-Phenyl)] (Pentadecanoyl-D[ξAbu(βξ-NH2)][Pip][ξAsp(βξ-Me)]DGDG[ξAbu(βξ-NH2)]([CO-NH(2-CF3-phenyl)])VP; lactam 2-C; configuration not given here) = 64
CCCCCCCCCCCCCCC(=O)NC(CC(=O)O)C(=O)NC1C(=O)N2CCCCC2C(=O)NC(C(C)C(=O)O)C(=O)NC(CC(=O)O)C(=O)NCC(=O)NC(CC(=O)O)C(=O)NCC(=O)NC(C(C)NC(=O)[C@H]2CCCN2C(=O)[C@H](N)CCCCN)C(=O)NC(C(C)C)C(=O)N2CCCC2C(=O)NC1C (stereo partly drawn) [Compound 151, C15-Amphomycin-9-(D-Pro)-(D-Lys)] = 16

Task: Read off the recorded MIC for CCCCCCCCCCCCCCC(=O)NC(CC(=O)O)C(=O)NC1C(=O)N2CCCCC2C(=O)NC(C(C)C(=O)O)C(=O)NC(CC(=O)O)C(=O)NCC(=O)NC(CC(=O)O)C(=O)NCC(=O)NC(C(C)NC(=O)[C@@H](N)CCc2ccccc2)C(=O)NC(C(C)C)C(=O)N2CCCC2C(=O)NC1C (some centres unmarked) [Compound 32, C15-Amphomycin-9-hPhe]
Result: 8

Task: Read off the recorded MIC for CC(C)C1NC(=O)C(C(C)N)NC(=O)CNC(=O)C(CC(=O)O)NC(=O)CNC(=O)C(CC(=O)O)NC(=O)C(C(C)C(=O)O)NC(=O)C2CCCCN2C(=O)C(NC(=O)C(CC(=O)O)NC(=O)CNC(=O)CCCCCCCCCCOc2ccccc2)C(C)NC(=O)C2CCCN2C1=O (stereo not drawn) [Compound 117, Ph-O—(CH2)11-Gly-Amphomycin] (X13-GD[ξAbu(βξ-NH2)][Pip][ξAsp(βξ-Me)]DGDG[ξAbu(3ξ-NH2)]VP; lactam 3-C; configuration not given here; N-terminus assumed)
Result: 8

---

System: Enterococcus faecalis EFS0004 (VSE)
Assay: Broad spectrum MIC, Table 17/18 B, C, D (CAMHB; + 0.625 mM calcium; + calcium and 30% bovine serum)
Type: cell-based
Details: condition B: CAMHB, in µg/mL
Protocol: The antimicrobial lipopeptide derivatives described herein were tested for antimicrobial activity against Gram-positive bacteria as follows. The minimum inhibitory concentrations (MIC) of the antimicrobial lipopeptide derivatives of the invention were determined using NCCLS guidelines M7-A6 (2003) with a slight modification in that doubling serial dilutions were used to dilute the test compounds. […] MICs were determined after incubating the plates at about 37° C. for 24 hours. […]
Overview of recorded MIC, media condition B for various molecules
Lab note: jot down the number only; don't add units.

CCCCCCCCCCCCNC(=O)NC(CC(=O)O)C(=O)NC1C(=O)N2CCCCC2C(=O)NC(C(C)C(=O)O)C(=O)NC(CC(=O)O)C(=O)NCC(=O)NC(CC(=O)O)C(=O)NCC(=O)NC(C(C)NC(=O)CNC)C(=O)NC(C(C)C)C(=O)N2CCCC2C(=O)NC1C (stereo not shown) = 32
CCCCCCCCCCCCCCC(=O)NC(CC(=O)O)C(=O)NC1C(=O)N2CCCCC2C(=O)NC(C(C)C(=O)O)C(=O)NC(CC(=O)O)C(=O)NCC(=O)NC(CC(=O)O)C(=O)NCC(=O)NC(C(C)NC(=O)CCN)C(=O)NC(C(C)C)C(=O)N2CCCC2C(=O)NC1C (stereo not shown) = 2
CCCCCCCCCCCCCCCC(=O)NC(CC(=O)O)C(=O)NC1C(=O)N2CCCCC2C(=O)NC(C(C)C(=O)O)C(=O)NC(CC(=O)O)C(=O)NCC(=O)NC(CC(=O)O)C(=O)NCC(=O)NC(C(C)N)C(=O)NC(C(C)C)C(=O)N2CCCC2C(=O)NC1C (stereo not shown) = 0.5
CCCCCCCCCCCCNC(=O)NC(CC(=O)O)C(=O)NC1C(=O)N2CCCCC2C(=O)NC(C(C)C(=O)O)C(=O)NC(CC(=O)O)C(=O)NCC(=O)NC(CC(=O)O)C(=O)NCC(=O)NC(C(C)NC(=O)CCN)C(=O)NC(C(C)C)C(=O)N2CCCC2C(=O)NC1C (stereo not shown) = 64
CCCCCCCCCCCCNC(=O)NC(CC(=O)O)C(=O)NC1C(=O)N2CCCCC2C(=O)NC(C(C)C(=O)O)C(=O)NC(CC(=O)O)C(=O)NCC(=O)NC(CC(=O)O)C(=O)NCC(=O)NC(C(C)N)C(=O)NC(C(C)C)C(=O)N2CCCC2C(=O)NC1C (stereo not shown) = 8

Task: Read off the recorded MIC, media condition B for CCCCCCCCCCCCCCC(=O)NC(CC(=O)O)C(=O)NC1C(=O)N2CCCCC2C(=O)NC(C(C)C(=O)O)C(=O)NC(CC(=O)O)C(=O)NCC(=O)NC(CC(=O)O)C(=O)NCC(=O)NC(C(C)NC(=O)[C@@H]2CCCN2)C(=O)NC(C(C)C)C(=O)N2CCCC2C(=O)NC1C (stereo partly shown)
Result: 16
